pKd: −log10 of the molar value.
Below are molecules with their pKd as measured on Complement factor B (Homo sapiens).
readout-label: pKd

> print(dat)
                                   molecule                                 tgt  readout.label      measured
1  COc1cc(C)c2[nH]ccc2c1C(=O)N1CC[C@H](OC2CCC2)C[C@H]1c1ccc(C(=O)O)cc1  Complement factor B (Homo sapiens)            pKd  7.52 to 8.00
2  COc1cc(C)c2[nH]ccc2c1C(=O)N1CCC(O)(C2CCC2)C[C@H]1c1ccc(C(=O)O)cc1 (mixture of isomers)  Complement factor B (Homo sapiens)            pKd  7.52 to 8.00
3  CCO[C@H]1CCN(S(=O)(=O)c2c(OC)cc(C)c3[nH]ccc23)[C@H](c2ccc(C(=O)O)cc2)C1  Complement factor B (Homo sapiens)            pKd  7.52 to 8.00
4  COc1cc(C)c2[nH]ccc2c1C(=O)N1CC[C@H](OCC2CC2)C[C@H]1c1ccc(C(=O)O)cc1  Complement factor B (Homo sapiens)            pKd  7.52 to 8.00

* * *

Here we list molecules with their recorded Kd when tested on UniProtKB P00751.
readout-label: Kd

> print(dat)
                                   molecule     measured
1  CCCC1CCN(C(=O)c2c(OC)cc(C)c3[nH]ccc23)C(c2ccc(C(=O)O)cc2)C1 (single isomer, unassigned) [Compound 159A]   5 to 20 nM
2  CCCC1CCN(C(=O)c2c(OC)cc(C)c3[nH]ccc23)[C@H](c2ccc(C(=O)O)cc2)C1 (mixture of isomers)   5 to 20 nM
3  COc1cc(C)c2[nH]ccc2c1C(=O)N1CCC(O)(C2CC2)C[C@H]1c1ccc(C(=O)O)cc1 (stereo partly drawn)  10 to 30 nM
4  COc1cc(C)c2[nH]ccc2c1C(=O)N1CC[C@H](OC)C[C@H]1c1ccc(C(=O)O)cc1  10 to 30 nM
5  CCO[C@H]1CCN(C(=O)c2c(OC)cc(C)c3[nH]ccc23)[C@H](c2ccc(C(=O)O)cc2)C1  10 to 30 nM
6  CCO[C@H]1CCN(Nc2c(OC)cc(C)c3[nH]ccc23)[C@H](c2ccc(C(=O)O)cc2)C1   5 to 20 nM

* * *

tgt: Complement factor B (Homo sapiens)
pIC50: −log10 of the molar value.
Reported pIC50 values for a set of compounds
readout-label: pIC50

> print(dat)
                                   compound      measured
1  CCCC1CCN(C(=O)c2c(OC)cc(C)c3[nH]ccc23)C(c2ccc(C(=O)O)cc2)C1 (single isomer, unassigned) [Compound 159A]  7.52 to 8.30
2  COc1cc(C)c2[nH]ccc2c1C(=O)N1CCC(O)(C2CC2)C[C@H]1c1ccc(C(=O)O)cc1 (stereo partly drawn)  6.52 to 6.82
3  COc1cc(C)c2[nH]ccc2c1C(=O)N1CC[C@H](OC)C[C@H]1c1ccc(C(=O)O)cc1  6.52 to 6.82

* * *

pIC50: −log10 of the molar value.
# Complement factor B (Homo sapiens, UniProt P00751): pIC50 values follow
readout-label: pIC50

> print(dat)
                                   compound                                       tgt  readout.label      measured
1  CCCC1CCN(C(=O)c2c(OC)cc(C)c3[nH]ccc23)[C@H](c2ccc(C(=O)O)cc2)C1 (mixture of isomers) [Final product of Example 158]  Complement factor B (Homo sapiens, UniProt P00751)          pIC50  7.52 to 8.30
2  CCO[C@H]1CCN(C(=O)c2c(OC)cc(C)c3[nH]ccc23)[C@H](c2ccc(C(=O)O)cc2)C1 [Compound 1 of Example 55]  Complement factor B (Homo sapiens, UniProt P00751)          pIC50  6.52 to 6.82
3  CCO[C@H]1CCN(Nc2c(OC)cc(C)c3[nH]ccc23)[C@H](c2ccc(C(=O)O)cc2)C1 [Compound 11 of Example 75]  Complement factor B (Homo sapiens, UniProt P00751)          pIC50  7.52 to 8.00
4  CCO[C@H]1CCN(S(=O)(=O)c2c(OC)cc(C)c3[nH]ccc23)[C@H](c2ccc(C(=O)O)cc2)C1 [Compound 51 of Example 144]  Complement factor B (Homo sapiens, UniProt P00751)          pIC50  6.30 to 6.52
5  COc1cc(C)c2[nH]ccc2c1C(=O)N1CCC(O)(C2CCC2)C[C@H]1c1ccc(C(=O)O)cc1 (mixture of isomers) [Final product of Example 154]  Complement factor B (Homo sapiens, UniProt P00751)          pIC50  6.35 to 6.40
6  COc1cc(C)c2[nH]ccc2c1C(=O)N1CC[C@H](OC2CCC2)C[C@H]1c1ccc(C(=O)O)cc1 [Final product of Example 157]  Complement factor B (Homo sapiens, UniProt P00751)          pIC50  6.35 to 6.40
